Reported shrunken log2 fold change values follow for various sequences
- Tested on: Escherichia coli TOP10;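 also: peptides expressed intracellularly from a pBAD plasmid library in pooled LB shake-flask culture, induced with 0.3% L-arabinose, DNA abundance read by NGS, three biological replicates, DESeq2 with apeglm shrinkage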
- METHOD NOTES: shrunken log2 fold change of peptide-encoding DNA abundance (4.5 h post-induction vs induction); higher = less antimicrobial activity (less host growth inhibition)
- CONDITION DESCRIPTION: time post-induction: 4.5 h; library: site-saturation at positions 5, 18, 19, 20
Note: the reply should be a number with no unit written.

RRIRVRPPRLPRPRPRPMSDPRP 0.032
RRIRTRPPRLPRPRPRPNILPRP -0.484
RRIRWRPPRLPRPRPRPSARPRP 0.54
RRIRLRPPRLPRPRPRPGWKPRP -0.0726
RRIRGRPPRLPRPRPRPSLNPRP 0.105
RRIRGRPPRLPRPRPRPGSFPRP 0.286
RRIRKRPPRLPRPRPRPQCAPRP 0.28
RRIRCRPPRLPRPRPRPHEVPRP 0.104
RRIRGRPPRLPRPRPRPDVRPRP 0.0237
RRIRCRPPRLPRPRPRPKDPPRP 0.148

Enquiry: Fill in shrunken log2 fold change for record `RRIRCRPPRLPRPRPRPVRIPRP`
Return: -0.108

Enquiry: Fill in shrunken log2 fold change for record `RRIRERPPRLPRPRPRPITCPRP`
Return: 0.0303

Enquiry: Fill in shrunken log2 fold change for record `RRIRYRPPRLPRPRPRPDCQPRP`
Return: -0.0127

Enquiry: Fill in shrunken log2 fold change for record `RRIRIRPPRLPRPRPRPLGVPRP`
Return: -0.0767

Enquiry: Fill in shrunken log2 fold change for record `RRIRYRPPRLPRPRPRPRFWPRP`
Return: 0.184
